compounds and their reported IC50
tested on: MYB mRNA; assay: Splicing RT-qPCR assay, MYB canonical (CJ) and alternative (AJ) junction mRNA; assay type: cell-based; conditions: Homo sapiens, decrease in canonical junction mRNA, A673 or K562 cells, 24 hours

IN: For the record Cc1c(O)c(NC(=O)c2ccc(N3C[C@@H](C)N[C@@H](C)C3)c3nccnc23)cc2cn(C)nc12 [Compound 310] , what value of IC50 is listed for MYB mRNA?
OUT: 100 to 1000 nM

IN: For the record C[C@@H]1CN(c2ccc(C(=O)Nc3cc(F)c4nc(O)cn4c3)c3nccnc23)C[C@H](C)N1 [Compound 360] , what value of IC50 is listed for MYB mRNA?
OUT: > 10000 nM

IN: For the record Cc1cn2cc(NC(=O)c3ccc(N4CCNC5(CCOC5)C4)c4nccnc34)cc(F)c2n1 (centres unmarked) [Compound 373] , what value of IC50 is listed for MYB mRNA?
OUT: 100 to 1000 nM

IN: For the record Cc1cn2cc(NC(=O)c3ccc(N4C[C@@H](C)N[C@H](C)C4)c4nccnc34)cc(F)c2n1 [Compound 312] , what value of IC50 is listed for MYB mRNA?
OUT: < 100 nM

IN: For the record CN[C@@H]1CCN(c2ccc(C(=O)Nc3cc(F)c4nc(C)cn4c3)c3nnccc23)C1 [Compound 238] , what value of IC50 is listed for MYB mRNA?
OUT: < 100 nM

IN: For the record CCNC1CCN(c2ccc(C(=O)Nc3cc(F)c4nc(C)sc4c3)c3nnccc23)CC1 [Compound 221] , what value of IC50 is listed for MYB mRNA?
OUT: 1000 to 10000 nM

IN: For the record Cc1cn2cc(NC(=O)c3ccc(C4CCNCC4)c4nccnc34)cc(F)c2n1 [Compound 371] , what value of IC50 is listed for MYB mRNA?
OUT: 100 to 1000 nM

IN: For the record Cc1cn2cc(NC(=O)c3ccc(N4C[C@@H](C)N[C@@H](C)C4)c4cncnc34)cc(F)c2n1 [Compound 302] , what value of IC50 is listed for MYB mRNA?
OUT: 100 to 1000 nM

====

system: HiBiT-tagged MYB protein; test: HiBiT protein abundance assay, MYB (K562 HiBiT knock-in cells); format: cell-based, human; conditions: 24 hours
pIC50: −log10 of the molar value.
Reported property: pIC50

# annotated cases, reported pIC50 shown
CCN1CCC(c2ccc(C(=O)Nc3cc(F)c4nc(C)cn4c3)c3nnccc23)CC1	> 7.00
Cc1cn2cc(NC(=O)c3ccc(N4CC(C)NC(C)C4)c4nc(C)c(C)nc34)cc(F)c2n1 (centres unmarked)	5.00 to 6.00
Cc1cn2cc(NC(=O)c3ccc(C4CCNC5(CC5)C4)c4nccnc34)cc(F)c2n1 (centres unmarked)	6.00 to 7.00
Cc1cn2cc(NC(=O)c3ccc(N4C[C@@H](C)N[C@@H](C)C4)c4cccnc34)cc(F)c2n1	6.00 to 7.00
Cc1cn2cc(NC(=O)c3ccc(N4CCNC(C)(C)C4)c4nccnc34)cc(F)c2n1	> 7.00

IN: Would you kindly share the measured pIC50 for Cc1cn2cc(NC(=O)c3ccc(N4CCC(N(C)C)CC4)c4ccnnc34)cc(F)c2n1 ?
OUT: > 7.00

IN: Would you kindly share the measured pIC50 for Cc1cn2cc(NC(=O)c3ccc(N4CCNC5(CCOC5)C4)c4nccnc34)cc(F)c2n1 (centres unmarked) ?
OUT: 6.00 to 7.00

IN: Would you kindly share the measured pIC50 for CN[C@H]1CCN(c2ccc(C(=O)Nc3cc(F)c4nc(C)cn4c3)c3nc(OC)cnc23)C1 ?
OUT: 5.00 to 6.00
